# experimental.target: T1, human Sdc2 (human, UniProt P34741 19-144, limits assumed)
# T1 construct: Antigen of the Octet tandem binning, loaded on biosensors at 100 nM; also called huSdc2; hSdc2
# T1 sequence (P34741 19-144 limits assumed): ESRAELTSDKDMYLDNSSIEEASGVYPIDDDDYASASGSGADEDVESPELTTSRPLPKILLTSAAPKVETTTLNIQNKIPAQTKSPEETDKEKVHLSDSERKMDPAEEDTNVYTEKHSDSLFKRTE
# procedure.details: Octet tandem binning; saturating Ab m1 19838-20H19-AB
measurement.type: raw competing-Ab binding signal

binder: 19838-6-N03-A (antibody, IgG1, V domains shown) VH: EVQLVESGGGLVKPGGSLKLSCEASGITFSNYVMSWVRQTPEKRLEWVATISDGGSYTYYPDNVKGRFTISRDNAKNNLYLQMSHLKSEDTAMYYCVRDRYDYDGRVYAMDYWGQGTSVTVSS VL: DVVMTQTPLSLPVSLGDQASISCRSSQSLVHSNGDTYLHWYLQKPGQSPKLLIYKVSNRFSGVPDRFSGSGSGTDFTLKITRVEAEDLGVYFCSQSTHVPWTFGGGTKLEIKR
measurement.type: raw competing-Ab binding signal
experimental.result: 0.0556

Fill in raw competing-Ab binding signal for each of the 2 binders listed.
1. R3-P3-C11 (antibody, human IgG1, kappa, V domains shown, human IgG1 kappa from the phage campaign) VH: EVQLVESGGGLVQPGRSLRLACEASGFTFNNYAVHWVRQAPGKGLEWVAVISYDGTNKYYSDSMKGRFTISRDNSKNTLYLQINSLRVEDTAVYFCARGNYVRRDSFDIWGQGTMVTVSS VL: DIQMTQSPPSLSASVGDRVTITCRASQSISSYLNWYQQKPGKAPKLLIYGASSLQSGVPLRFSGSGSGADFTLTISSLQPEDFATYYCQQSYISPITFGQGTRLEIKR
2. 6-N03-A (antibody, mouse IgG1, kappa, V domains shown) VH: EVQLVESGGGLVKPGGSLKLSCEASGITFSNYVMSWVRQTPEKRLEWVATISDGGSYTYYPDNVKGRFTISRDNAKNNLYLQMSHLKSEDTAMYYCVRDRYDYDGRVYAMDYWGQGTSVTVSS VL: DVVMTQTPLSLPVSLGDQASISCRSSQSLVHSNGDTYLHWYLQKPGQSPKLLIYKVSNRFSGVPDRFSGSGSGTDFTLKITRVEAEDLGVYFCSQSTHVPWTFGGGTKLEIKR

Reply:
0.569
0.0812
